These measurements were taken from the supplement of paper PMC10567573.

B1: IQUB (parent)
chain: CRNCINLQNEAQKRESFLKYKCLL

variants of: B1; test: protein stability index of a GFP-peptide fusion (GPS, HEK-293T) (PSI 1-6); higher = more stable; details: c terminus: a fixed tail appended;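 note: lentivirally expressed fusions sorted by FACS into six bins by GFP to DsRed ratio, PSI derived from sequencing read proportions per bin multiplied by bin number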
Assign 1 whenever protein stability index does not fall below 2; assign 0 whenever it does.

sequence.record	category.label
CRNCINLQNEAQKRESFHKYKCLL [L18H]	1
CRNCINLQNEAQKRESFLKYKCLC [L24C]	1
CRNCINLQNEAQKRESFLKYKCLM [L24M]	0
CRNCIYLQNEAQKRESFLKYKCLL [N6Y]	0
CENCINLQNEAQKRESFLKYKCLL [R2E]	1

query: Can VRNCINLQNEAQKRESFLKYKCLL [C1V] be said to have protein stability index at or above 2?
result: 1

query: Would you say CRNCINLQNEAQKRESCLKYKCLL [F17C] shows protein stability index at minimum 2?
result: 1

query: Can CRNCINLQNEAQKSESFLKYKCLL [R14S] be said to have protein stability index at or above 2?
result: 1

query: # check: protein stability index of CRNCINLQNEAQKTESFLKYKCLL [R14T] is greater than or equal to 2
result: 0

query: Could you verify whether the entry CRNCINLQNEAQKRESFLKYKRLL [C22R] shows protein stability index of no less than 2?
result: 0

query: I'd appreciate it if you could say whether KRNCINLQNEAQKRESFLKYKCLL [C1K] has protein stability index at least equal to 2.
result: 0

query: Can CRVCINLQNEAQKRESFLKYKCLL [N3V] be said to have protein stability index at or above 2?
result: 0

query: Decide: protein stability index of CRNCYNLQNEAQKRESFLKYKCLL [I5Y] >= 2?
result: 1

query: Assess whether reported protein stability index for CRNYINLQNEAQKRESFLKYKCLL [C4Y] sits at 2 or higher.
result: 1

query: Assess whether reported protein stability index for CRNCINLQNEAQKRESFLKYKCRL [L23R] sits at 2 or higher.
result: 1

query: Check this variant for protein stability index at or above 2: CRNCGNLQNEAQKRESFLKYKCLL [I5G]
result: 0

query: Textbook exercise: given the entry CRNCINFQNEAQKRESFLKYKCLL [L7F] , state whether its protein stability index is greater than or equal to 2.
result: 0

query: # bool: protein stability index of CRNCINLQNEAQKRESFLKYKCLY [L24Y] >= 2
result: 0

query: Check the entry CRNCIQLQNEAQKRESFLKYKCLL [N6Q] : does protein stability index equal or exceed 2?
result: 1
